Reported pIC50, AChE (Rattus norvegicus, UniProt P37136).
Answer as the number alone; pIC50 is minus log10 of concentration in mol/L.

Recorded pIC50, per entry:
C=CC[Se]C(=O)c1ccccc1OC(C)=O [Compound 14a, 2-(allylselanylcarbonyl)phenylacetate]	6.05
C=CC[Se]C(=O)c1ccccc1O [Compound 13a, Se-allyl 2-hydroxybenzoselenoate]	5.28

Hello, I am looking for reported pIC50 with AChE (Rattus norvegicus, UniProt P37136) for C=CC[Se]C(=O)c1sccc1Cl [Compound 10a] . Could you help?
5.62

---

Test system: HTB-54 cells
Test: MTT cell viability assay, HTB-54
Assay type: cell-based
Settings: IC50 (BEAS-2B)/IC50 (HTB-54)
experimental endpoint: SI (lung)
No unit in the answer, only the number.

Recorded SI (lung), per entry:
C=CC[Se]C(=O)C(C)c1ccc2cc(OC)ccc2c1 (stereo not shown) [Compound 16a]	1.5
C=CC[Se]C(=O)c1ccccc1OC(C)=O [Compound 14a, 2-(allylselanylcarbonyl)phenylacetate]	0.7
C=CC[Se]C(=O)C(C)c1ccc(CC(C)C)cc1 (stereo not shown) [Compound 15a]	0.5

Pending compound:
May I ask what SI (lung) has been recorded for C=CC[Se]C(=O)Cc1c(C)n(C(=O)c2ccc(Cl)cc2)c2ccc(OC)cc12 [Compound 17a] ?
0.8

---

Test system: MDA-MB-231 cells
Assay: MTT cell viability assay, MDA-MB-231
Format: cell-based
Details: Homo sapiens, MDA-MB-231, 48 h, read-out: Cell growth % at 10 µM, MDA-MB-231
I'd appreciate it if you marked entries yes when viability at 10 µM is lower than 90% and no when it is not.

Would you please look over these solved cases?
C#CC[Se]C(=O)Cc1c(C)n(C(=O)c2ccc(Cl)cc2)c2ccc(OC)cc12 [Compound 17b]	yes
C#CC[Se]C(=O)c1ccccc1Nc1cccc(C(F)(F)F)c1 [Compound 19b]	no
C=CC[Se]C(=O)Cc1c(C)n(C(=O)c2ccc(Cl)cc2)c2ccc(OC)cc12 [Compound 17a]	yes

Decide: viability at 10 µM of C#CC[Se]C(=O)c1ccccc1Nc1cccc(C)c1C [Compound 18b] strictly below 90%?
no

Decide: viability at 10 µM of C#CC[Se]C(=O)c1ccccc1Cl [Compound 3b, Se-prop-2-ynyl 2-chlorobenzoselenoate] strictly below 90%?
no

---

Biological target: AChE (Rattus norvegicus, UniProt P37136)
Construct: from tissue; host or cells: frontal cortex of male Wistar rats (crude homogenate)
Sequence (P37136 32-614): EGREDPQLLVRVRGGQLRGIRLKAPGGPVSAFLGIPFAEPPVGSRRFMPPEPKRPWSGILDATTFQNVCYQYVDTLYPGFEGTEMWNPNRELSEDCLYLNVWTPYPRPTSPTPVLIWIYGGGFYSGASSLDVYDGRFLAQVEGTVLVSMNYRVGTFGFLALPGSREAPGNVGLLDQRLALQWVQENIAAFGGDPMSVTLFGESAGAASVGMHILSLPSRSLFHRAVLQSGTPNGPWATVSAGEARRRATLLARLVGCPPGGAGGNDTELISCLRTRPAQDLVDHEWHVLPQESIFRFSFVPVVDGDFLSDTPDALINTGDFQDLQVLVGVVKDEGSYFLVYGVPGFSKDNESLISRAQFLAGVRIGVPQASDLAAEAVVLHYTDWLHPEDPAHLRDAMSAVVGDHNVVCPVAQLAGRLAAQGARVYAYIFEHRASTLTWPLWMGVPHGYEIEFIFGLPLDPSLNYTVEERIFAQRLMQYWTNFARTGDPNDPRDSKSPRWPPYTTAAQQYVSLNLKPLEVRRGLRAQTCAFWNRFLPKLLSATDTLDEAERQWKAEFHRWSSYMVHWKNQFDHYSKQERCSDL
Experiment: AChE inhibition by Ellman's method (rat frontal cortex homogenate)
Format: biochemical
Details: at 10^−6 M, Ellman's method
experimental endpoint: inhibition at 1 µM (%)
Respond numerically; units are % and should not be typed.

Recorded inhibition at 1 µM, per entry:
C=CC[Se]C(=O)CCc1ccccc1 [Compound 6a, Se-allyl 3-phenylpropaneselenoate]	18.7
C#CC[Se]C(=O)c1cccs1 [Compound 9b]	20.6
C=CC[Se]C(=O)c1ccccc1O [Compound 13a, Se-allyl 2-hydroxybenzoselenoate]	51.8
C=CC[Se]C(=O)C(C)c1ccc(CC(C)C)cc1 (stereo not drawn) [Compound 15a]	19.3
C#CC[Se]C(=O)c1ccccc1Cl [Compound 3b, Se-prop-2-ynyl 2-chlorobenzoselenoate]	23.7
C=CC[Se]C(=O)c1ccccc1OC(C)=O [Compound 14a, 2-(allylselanylcarbonyl)phenylacetate]	43.5
C#CC[Se]C(=O)c1ccno1 [Compound 12b]	21.7
C#CC[Se]C(=O)C12CC3CC(CC(C3)C1)C2 [Compound 1b]	18

May I ask what inhibition at 1 µM has been recorded for C=CC[Se]C(=O)c1ccccc1Nc1cccc(C(F)(F)F)c1 [Compound 19a] ?
19.3

May I ask what inhibition at 1 µM has been recorded for C#CC[Se]C(=O)Cc1c(C)n(C(=O)c2ccc(Cl)cc2)c2ccc(OC)cc12 [Compound 17b] ?
23

May I ask what inhibition at 1 µM has been recorded for C#CC[Se]C(=O)/C=C/c1ccccc1 [Compound 5b] ?
26

May I ask what inhibition at 1 µM has been recorded for C#CC[Se]C(=O)c1cccnc1 [Compound 7b, Se-prop-2-ynyl pyridine-3-carboselenoate] ?
24.9

---

Experiment: in vitro
Settings: PAMPA
Reported Papp at 20 h, 500 µg/mL values for the following compounds.
Respond numerically; units are ×10⁻⁶ cm/s and should not be typed.

Recorded Papp at 20 h, 500 µg/mL, per entry:
C=CC[Se]C(=O)c1sccc1Cl [Compound 10a]	38.6
COc1ccc2c3c1O[C@H]1C[C@@H](O)C=C[C@@]31CCN(C)C2 [Galantamine, galantamine, reference compound]	12.3

May I ask what Papp at 20 h, 500 µg/mL has been recorded for C=CC[Se]C(=O)c1ccccc1OC(C)=O [Compound 14a, 2-(allylselanylcarbonyl)phenylacetate] ?
36.9

---

Test system: HCT116 cells
Experiment: MTT cell viability assay, HCT116
Assay type: cell-based
Conditions: Homo sapiens, HCT-116, 48 h
experimental endpoint: IC50 (µM)
Respond numerically; units are µM and should not be typed.

Recorded IC50, per entry:
C=CC[Se]C(=O)c1ccccc1OC(C)=O [Compound 14a, 2-(allylselanylcarbonyl)phenylacetate]	5.9
C=CC[Se]C(=O)Cc1c(C)n(C(=O)c2ccc(Cl)cc2)c2ccc(OC)cc12 [Compound 17a]	7
C=CC[Se]C(=O)C(C)c1ccc(CC(C)C)cc1 (stereo not shown) [Compound 15a]	10.2

Pending molecule:
May I ask what IC50 has been recorded for C=CC[Se]C(=O)C(C)c1ccc2cc(OC)ccc2c1 (stereo not shown) [Compound 16a] ?
27.1

---

Molecular target: AChE (Rattus norvegicus, UniProt P37136)
Construct: from tissue; host or cells: frontal cortex of male Wistar rats (crude homogenate)
Experiment: AChE inhibition by Ellman's method (rat frontal cortex homogenate)
Assay type: biochemical
Details: at 10^−6 M, Ellman's method
experimental endpoint: inhibition at 1 µM
I'd appreciate it if you wrote the number followed by its unit.

Recorded inhibition at 1 µM, per entry:
C=CC[Se]C(=O)c1cccnc1Cl [Compound 8a]	6.3%
C#CC[Se]C(=O)c1ccccc1 [Compound 2b, Se-prop-2-ynyl benzoselenoate]	26.9%
C#CC[Se]C(=O)c1ccccc1Nc1cccc(C)c1C [Compound 18b]	20%
C=CC[Se]C(=O)c1ccco1 [Compound 11a, Se-allyl 4-furan-2-carboselenoate]	18.6%

May I ask what inhibition at 1 µM has been recorded for C#CC[Se]C(=O)c1ccco1 [Compound 11b, Se-prop-2-ynyl furan-2-carboselenoate] ?
27.2%

May I ask what inhibition at 1 µM has been recorded for C#CC[Se]C(=O)c1ccccc1O [Compound 13b, Se-prop-2-ynyl 2-hydroxybenzoselenoate] ?
21.5%

May I ask what inhibition at 1 µM has been recorded for C=CC[Se]C(=O)c1cccnc1 [Compound 7a, Se-allyl pyridine-3-carboselenoate] ?
13.6%

May I ask what inhibition at 1 µM has been recorded for C#CC[Se]C(=O)C(C)c1ccc(CC(C)C)cc1 (stereo not drawn) [Compound 15b] ?
8.5%

May I ask what inhibition at 1 µM has been recorded for C#CC[Se]C(=O)c1cccnc1Cl [Compound 8b] ?
17.1%

May I ask what inhibition at 1 µM has been recorded for C=CC[Se]C(=O)c1sccc1Cl [Compound 10a] ?
42.5%

May I ask what inhibition at 1 µM has been recorded for C=CC[Se]C(=O)c1cccs1 [Compound 9a, Se-allyl thiophene-2-carboselenoate] ?
25.9%

May I ask what inhibition at 1 µM has been recorded for C=CC[Se]C(=O)/C=C/c1ccccc1 [Compound 5a, Se-allyl 3-phenylprop-2E-eneselenoate] ?
8.7%

May I ask what inhibition at 1 µM has been recorded for C#CC[Se]C(=O)CCc1ccccc1 [Compound 6b, Se-prop-2-ynyl 3-phenylpropaneselenoate] ?
24.5%

May I ask what inhibition at 1 µM has been recorded for C=CC[Se]C(=O)c1ccccc1Nc1cccc(C)c1C [Compound 18a] ?
18.4%

---

Molecular target: AChE (Rattus norvegicus, UniProt P37136)
Construct: from tissue; host or cells: frontal cortex of male Wistar rats (crude homogenate)
Test: AChE inhibition by Ellman's method (rat frontal cortex homogenate)
Type: biochemical
Details: at 10^−6 M, Ellman's method
experimental endpoint: inhibition at 1 µM (%)
Respond numerically; units are % and should not be typed.

C=CC[Se]C(=O)c1ccccc1 [Compound 2a, Se-allyl benzoselenoate]	22.6
C=CC[Se]C(=O)c1ccc2c(c1)OCO2 [Compound 4a, Se-allyl benzodioxole-5-carboselenoate]	2.5
C=CC[Se]C(=O)C(C)c1ccc2cc(OC)ccc2c1 (stereo not shown) [Compound 16a]	20.3

Pending molecule:
May I ask what inhibition at 1 µM has been recorded for C=CC[Se]C(=O)c1ccno1 [Compound 12a, Se-allyl isoxazole-5-carboselenoate] ?
4.2

---

Tested on: HTB-54, DU-145, HT-29 and MDA-MB-231 cancer cell lines
Assay: cells
Assay type: cell-based
Conditions: against the panel of the four cancer cell lines
experimental endpoint: viability at 10 µM

Recorded viability at 10 µM, per entry:
C=CC[Se]C(=O)C(C)c1ccc2cc(OC)ccc2c1 (stereo not shown) [Compound 16a]	< 55%
C=CC[Se]C(=O)c1ccccc1OC(C)=O [Compound 14a, 2-(allylselanylcarbonyl)phenylacetate]	< 55%
C=CC[Se]C(=O)C(C)c1ccc(CC(C)C)cc1 (stereo not shown) [Compound 15a]	< 55%

Pending compound:
May I ask what viability at 10 µM has been recorded for C=CC[Se]C(=O)Cc1c(C)n(C(=O)c2ccc(Cl)cc2)c2ccc(OC)cc12 [Compound 17a] ?
< 55%
